Target: T1, biotin-labeled human ADM (human, not fully specified; biotin label (named human ADM-C-biotin in Example 1.4; position of the biotin not stated for the other lots))
T1 construct: Synthetic peptide; also called human ADM-C-biotin; hADM-Biotin
T1 peptide: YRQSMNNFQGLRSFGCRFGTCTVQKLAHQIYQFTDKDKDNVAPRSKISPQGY
Assay: BLI (Octet RED96e), as in Example 3
PARAMETER: koff (s⁻¹)
Write the answer as a number in s⁻¹, unit excluded.

koff for Ab2004.Am31 (IgG1 antibody) (antibody, V domains shown, Expressed in CHO cells, human IgG1/kappa) VH: QVQLVQSGAEVKKPGASVKVSCKASGYTFTQYGIAWVRQAPGQGLEWMGWISAYQGNTNYAQKLQGRVTMTRDTSTSTAYMELRSLRSDDTAVYYCAREGRWGGSFNIWGQGTMVTVSS VL: DIQMTQSPSSLSASVGDRVTITCRASEGISEYLAWYQQKPGKAPKLLIYDASNLETGVPSRFSGSGSGTDFTFTISSLQPEDIATYYCQQYDNLPLTFGGGTKVEIKR ?
0.000141

Source of measurements: patent US20260035456A1
